biological target: human glycogen phosphorylase a (Homo sapiens); experiment: Glycogen phosphorylase a activity test; format: biochemical; settings: 10 μM test substance; GPa measured in reverse direction (glycogen synthesis from glucose 1-phosphate)
% Inhibition at 10 μM values, listed per item
READOUT: % Inhibition at 10 μM (%)

| COMPOUND SMILES | READOUT | UNITS OF MEASURE | VALUE OBSERVED |
| --- | --- | --- | --- |
| COc1ccc(NC(=O)c2cccnc2)cc1NC(=O)NC(=O)c1cc(F)c(F)cc1Cl | % Inhibition at 10 μM | % | 89 |
| COc1ccc(NC(=O)CCC(=O)O)cc1NC(=O)NC(=O)c1ccc(Cl)cc1Cl | % Inhibition at 10 μM | % | 103 |
| COC(=O)CCC(=O)Nc1ccc(OC(F)(F)F)c(NC(=O)NC(=O)c2cc(F)c(F)cc2Cl)c1 | % Inhibition at 10 μM | % | 101 |
| COc1ccc(NC(=O)CC(=O)O)cc1NC(=O)NC(=O)c1cc(F)c(F)cc1Cl | % Inhibition at 10 μM | % | 100 |
| COc1ccc(NC(=O)CCN)cc1NC(=O)NC(=O)c1cc(F)c(F)cc1Cl | % Inhibition at 10 μM | % | 100 |
| COc1cc(C)c(NC(=O)C(=O)O)cc1NC(=O)NC(=O)c1cc(F)c(F)cc1Cl | % Inhibition at 10 μM | % | 100 |
| COc1ccc(NC(=O)CN(C)C)cc1NC(=O)NC(=O)c1cc(F)c(F)cc1Cl | % Inhibition at 10 μM | % | 99 |
| O=C(O)CC(=O)Nc1ccc(Cl)c(NC(=O)NC(=O)c2cc(F)c(F)cc2Cl)c1 | % Inhibition at 10 μM | % | 95 |

====

target: human glycogen phosphorylase a (Homo sapiens, UniProt P06737); experiment: Glycogen phosphorylase a activity test; type: biochemical; conditions: 10 μM test substance; GPa measured in reverse direction (glycogen synthesis from glucose 1-phosphate)
Sequence (P06737 whole entry): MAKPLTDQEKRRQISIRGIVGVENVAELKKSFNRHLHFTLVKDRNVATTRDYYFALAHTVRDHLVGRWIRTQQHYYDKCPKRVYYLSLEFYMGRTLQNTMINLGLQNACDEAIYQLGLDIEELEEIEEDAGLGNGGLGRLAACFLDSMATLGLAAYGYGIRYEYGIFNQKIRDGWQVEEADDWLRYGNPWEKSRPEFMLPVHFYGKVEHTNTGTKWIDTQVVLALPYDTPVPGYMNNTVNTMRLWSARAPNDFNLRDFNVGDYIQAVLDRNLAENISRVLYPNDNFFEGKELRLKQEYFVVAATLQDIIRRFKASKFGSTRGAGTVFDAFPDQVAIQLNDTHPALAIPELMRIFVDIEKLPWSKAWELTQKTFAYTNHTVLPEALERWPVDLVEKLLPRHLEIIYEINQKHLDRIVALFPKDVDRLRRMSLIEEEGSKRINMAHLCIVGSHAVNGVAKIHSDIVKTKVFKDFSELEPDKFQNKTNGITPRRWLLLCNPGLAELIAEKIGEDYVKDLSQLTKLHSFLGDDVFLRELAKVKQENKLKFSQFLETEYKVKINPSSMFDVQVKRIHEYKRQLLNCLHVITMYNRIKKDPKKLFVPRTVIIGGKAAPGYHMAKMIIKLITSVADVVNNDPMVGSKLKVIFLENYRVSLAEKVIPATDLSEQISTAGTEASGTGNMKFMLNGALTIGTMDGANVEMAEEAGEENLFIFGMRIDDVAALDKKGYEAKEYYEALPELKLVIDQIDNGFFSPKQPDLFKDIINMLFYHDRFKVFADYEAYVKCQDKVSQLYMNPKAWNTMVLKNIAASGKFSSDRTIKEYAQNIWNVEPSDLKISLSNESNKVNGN

| COMPOUND SMILES | MEASURED TARGET | % Inhibition at 10 μM / % |
| --- | --- | --- |
| COC(=O)CC(=O)Nc1ccc(OC)c(NC(=O)NC(=O)c2cc(F)c(F)cc2Cl)c1 | human glycogen phosphorylase a (Homo sapiens, UniProt P06737) | 104 |
| COc1ccc(NC(=O)COC(C)=O)cc1NC(=O)NC(=O)c1cc(F)c(F)cc1Cl | human glycogen phosphorylase a (Homo sapiens, UniProt P06737) | 99 |
| COC(=O)CC(=O)Nc1ccc(N2CCCC2)c(NC(=O)NC(=O)c2cc(F)c(F)cc2Cl)c1 | human glycogen phosphorylase a (Homo sapiens, UniProt P06737) | 100 |
| CC(=O)Nc1ccc(Cl)c(NC(=O)NC(=O)c2cc(F)c(F)cc2Cl)c1 | human glycogen phosphorylase a (Homo sapiens, UniProt P06737) | 98 |
| COc1cc(C)c(NC(=O)CC(=O)O)cc1NC(=O)NC(=O)c1cc(F)c(F)cc1Cl | human glycogen phosphorylase a (Homo sapiens, UniProt P06737) | 99 |
| O=C(O)CC(=O)Nc1ccc(N2CCCC2)c(NC(=O)NC(=O)c2cc(F)c(F)cc2Cl)c1 | human glycogen phosphorylase a (Homo sapiens, UniProt P06737) | 98 |
| COc1cc(C(=O)O)c(NC(=O)CC(=O)O)cc1NC(=O)NC(=O)c1cc(F)c(F)cc1Cl | human glycogen phosphorylase a (Homo sapiens, UniProt P06737) | 96 |
| COCC(=O)Nc1ccc(OC)c(NC(=O)NC(=O)c2cc(F)c(F)cc2Cl)c1 | human glycogen phosphorylase a (Homo sapiens, UniProt P06737) | 98 |
| COc1ccc(NC(=O)C(=O)c2c[nH]c3ccccc23)cc1NC(=O)NC(=O)c1cc(F)c(F)cc1Cl | human glycogen phosphorylase a (Homo sapiens, UniProt P06737) | 83 |
| CCCCC(=O)Nc1ccc(OC)c(NC(=O)NC(=O)c2cc(F)c(F)cc2Cl)c1 | human glycogen phosphorylase a (Homo sapiens, UniProt P06737) | 105 |
| COc1ccc(NC(=O)c2cccs2)cc1NC(=O)NC(=O)c1cc(F)c(F)cc1Cl | human glycogen phosphorylase a (Homo sapiens, UniProt P06737) | 98 |
| COc1ccc(NC(=O)C2CCCC2)cc1NC(=O)NC(=O)c1cc(F)c(F)cc1Cl | human glycogen phosphorylase a (Homo sapiens, UniProt P06737) | 96 |
| COc1ccc(NC(=O)C2CCC2)cc1NC(=O)NC(=O)c1cc(F)c(F)cc1Cl | human glycogen phosphorylase a (Homo sapiens, UniProt P06737) | 101 |
| COc1ccc(NC(=O)c2ccccc2OC)cc1NC(=O)NC(=O)c1cc(F)c(F)cc1Cl | human glycogen phosphorylase a (Homo sapiens, UniProt P06737) | 97 |
| COc1cc(C)c(NC(=O)NC(=O)c2cc(F)c(F)cc2Cl)cc1NC(=O)CCC(=O)O | human glycogen phosphorylase a (Homo sapiens, UniProt P06737) | 90 |
| COc1ccc(NC(=O)Cc2ccccc2)cc1NC(=O)NC(=O)c1cc(F)c(F)cc1Cl | human glycogen phosphorylase a (Homo sapiens, UniProt P06737) | 101 |
